# Test system: barnyardgrass (Echinochloa crus-galli, ECHCG)
# ASSAY NOTES: Post-emerge greenhouse herbicide activity screening, phytotoxicity rating
# Type: in vivo
# COND: 250 g ai/ha, 14 days after application
Quick reference for ECHCG phytotoxicity rating (0-100 scale) among some compounds

Give ECHCG phytotoxicity rating (0-100 scale) (barnyardgrass (Echinochloa crus-galli, ECHCG)) of the following compound: `Cn1c(=S)n(C)c(=O)n(-c2cc(Oc3ccccc3N)c(Cl)cc2F)c1=O` 35

Entry Cn1nc(-c2cc(Oc3ncccn3)c(Cl)cc2F)c(Cl)c1[S+]([O-])C(F)F (stereo not shown) , system barnyardgrass (Echinochloa crus-galli, ECHCG): what ECHCG phytotoxicity rating (0-100 scale) was measured? 65

So what ECHCG phytotoxicity rating (0-100 scale) did `Cn1nc(-c2cc(Oc3ncccn3)c(Cl)cc2F)c(=O)n(C)c1=S` get with barnyardgrass (Echinochloa crus-galli, ECHCG)? 75

Missing value: ECHCG phytotoxicity rating (0-100 scale), barnyardgrass (Echinochloa crus-galli, ECHCG), entry `Cn1c(C(F)(F)F)cc(=O)n(-c2cc(Oc3ncccc3[N+](=O)[O-])c(Cl)cc2F)c1=S` . Fill in? 65
